Origin of measurements: ChEMBL document CHEMBL4130412

# test-protocol: Photostability of the compound assessed as parent compound remaining under sunlight exposed for 6 days in EtOH solution measured by TLC method
# Type: physicochemical
# condition-summary: read-out: Stability
readout-kind: remaining at 144 h (%)
Numeric answer only, unit % assumed.

Query: I am curious: what remaining at 144 h value has been reported for CC(C)=CCC/C(C)=C/CC/C(C)=C/COc1ccc2ccc(=O)oc2c1 [UMBELLIPRENIN] ?
Result: 9

====

# test-protocol: Stability of the compound assessed as compound degradation in 0.1 M NaOH solution at room temperature in EtOH solution after 96 hrs by HPLC analysis
# Format: physicochemical
# condition-summary: 0.1 M NaOH solution in EtOH solution; read-out: Drug degradation
readout-kind: degraded at 96 h (%)
Numeric answer only, unit % assumed.

Query: I am curious: what degraded at 96 h value has been reported for CC(C)=CCC/C(C)=C/CC/C(C)=C/COc1ccc2ccc(=O)oc2c1 ?
Result: 85

====

# test-protocol: Stability of the compound assessed as compound degradation in 3% H2O2 solution at 40 degC in EtOH solution after 96 hrs by HPLC analysis
# Format: physicochemical
# condition-summary: 3% H2O2 solution in EtOH solution; read-out: Drug degradation
readout-kind: degraded at 96 h (%)
Numeric answer only, unit % assumed.

Query: I am curious: what degraded at 96 h value has been reported for CC(C)=CCC/C(C)=C/CC/C(C)=C/COc1ccc2ccc(=O)oc2c1 [UMBELLIPRENIN] ?
Result: 50.1

====

# test-protocol: Thermal stability of the compound assessed as compound degradation at 80 degC in EtOH solution measured up to 96 hrs by HPLC analysis
# Type: physicochemical
# condition-summary: read-out: Drug degradation
readout-kind: degraded at 96 h (%)
Numeric answer only, unit % assumed.

Query: I am curious: what degraded at 96 h value has been reported for CC(C)=CCC/C(C)=C/CC/C(C)=C/COc1ccc2ccc(=O)oc2c1 ?
Result: 34

====

# test-protocol: Stability of the compound assessed as compound degradation in 0.1 M HCl solution at 60 degC in EtOH solution after 24 hrs by HPLC analysis
# Format: physicochemical
# condition-summary: 0.1 M HCl solution in EtOH solution; read-out: Drug degradation
readout-kind: degraded at 24 h

Query: I am curious: what degraded at 24 h value has been reported for CC(C)=CCC/C(C)=C/CC/C(C)=C/COc1ccc2ccc(=O)oc2c1 [UMBELLIPRENIN] ?
Result: > 95%

====

# test-protocol: Stability of the compound assessed as compound degradation in 3% H2O2 solution at 40 degC in EtOH solution after 24 hrs by HPLC analysis
# Format: physicochemical
# condition-summary: 3% H2O2 solution in EtOH solution; read-out: Drug degradation
readout-kind: degraded at 24 h (%)
Numeric answer only, unit % assumed.

Query: I am curious: what degraded at 24 h value has been reported for CC(C)=CCC/C(C)=C/CC/C(C)=C/COc1ccc2ccc(=O)oc2c1 ?
Result: 39.4

====

# test-protocol: Thermal stability of the compound assessed as compound degradation at 37 degC in EtOH solution after 48 hrs by HPLC analysis
# Type: physicochemical
# condition-summary: read-out: Drug degradation
readout-kind: degraded at 48 h
A complete answer gives the number and then names the unit.

Query: I am curious: what degraded at 48 h value has been reported for CC(C)=CCC/C(C)=C/CC/C(C)=C/COc1ccc2ccc(=O)oc2c1 ?
Result: 1.8%
